- assay target: α2AAR (α2A-adrenergic receptor) (Homo sapiens)
- Construct: expressed in transfected cells; host or cells: HEK293
- Sequence (P08913 1-465): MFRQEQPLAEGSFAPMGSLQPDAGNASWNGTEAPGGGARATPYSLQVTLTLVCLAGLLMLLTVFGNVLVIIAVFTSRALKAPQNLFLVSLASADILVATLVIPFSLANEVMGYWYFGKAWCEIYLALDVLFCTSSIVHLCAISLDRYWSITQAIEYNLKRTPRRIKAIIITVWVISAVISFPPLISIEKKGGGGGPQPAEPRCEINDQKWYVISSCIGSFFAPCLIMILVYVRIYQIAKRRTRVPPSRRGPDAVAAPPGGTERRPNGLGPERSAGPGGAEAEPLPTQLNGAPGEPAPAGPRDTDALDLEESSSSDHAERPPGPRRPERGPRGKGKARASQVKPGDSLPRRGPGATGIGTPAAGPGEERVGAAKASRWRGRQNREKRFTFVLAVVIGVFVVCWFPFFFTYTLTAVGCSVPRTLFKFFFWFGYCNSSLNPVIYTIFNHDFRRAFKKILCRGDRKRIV
- experimental details: α2AAR FLIPR assay (agonist activity)
- Assay type: cell-based
- study conditions: FLIPR, α2AAR cell line hosted in HEK293 cells; read-out: α2A agonist activity (EC50)

[
  {
    "compound": "Cc1cccc(C(c2cccc(OCCNS(C)(=O)=O)c2)c2c[nH]cn2)c1C (stereo not drawn)",
    "EC50": "10 to 50 nM"
  },
  {
    "compound": "CONC(=O)c1cccc(CC(NC2=NCCO2)c2ccccc2OC)c1 (stereo not drawn)",
    "EC50": "50 to 250 nM"
  },
  {
    "compound": "Cc1cccc(C(Cc2ccc(C(=O)N(C)C)cc2)c2c[nH]cn2)c1C (stereo not drawn)",
    "EC50": "< 10 nM"
  },
  {
    "compound": "Cc1cccc(C(c2cccc(NC(=O)CC3CCCOC3)c2)c2c[nH]cn2)c1C (stereo not drawn)",
    "EC50": "10 to 50 nM"
  },
  {
    "compound": "Cc1cccc(C(c2c[nH]cn2)c2cccc(C(N)=O)n2)c1C (stereo not drawn)",
    "EC50": "10 to 50 nM"
  },
  {
    "compound": "Cc1cccc(C(COCCNS(=O)(=O)CC2CCOCC2)c2c[nH]cn2)c1C (stereo not drawn)",
    "EC50": "10 to 50 nM"
  },
  {
    "compound": "CC(=O)Nc1cccc(C(c2c[nH]cn2)c2cccc(C)c2C)c1 (stereo not drawn)",
    "EC50": "50 to 250 nM"
  },
  {
    "compound": "CONC(=O)c1cccc(C(c2c[nH]cn2)c2cccc(C)c2C)c1 (single isomer, unassigned) [1-B]",
    "EC50": "10 to 50 nM"
  },
  {
    "compound": "Cc1cccc(C(c2cccc(S(=O)(=O)NCC3CCOCC3)c2)c2c[nH]cn2)c1C (stereo not drawn)",
    "EC50": "10 to 50 nM"
  }
]
